target: T1, HCV NS3 1073 (genotype 5) peptide on HLA-A*02:01 (human); assay: cytokine release
T1 peptide: CINGVMWTV
measured metric: binding result

[[record]]
binder = "I8H4 (TCR, V domains shown) Valpha: AQKVTQTQTSISVVEKTTVTMDCVYETRDSSYFLFWYKQTASGEIVFLIRQDSYKKENATVGHYSLNFQKPKSSIGLIITATQIEDSAVYFCAMREITGNTGKLIFGLGTTLQVQP Vbeta: EAAVTQSPRNKVTVTGGNVTLSCRQTNSHNYMYWYRQDTGHGLRLIHYSYGAGNLRIGDVPDGYKATRTTQEDFFLLLELASPSQTSLYFCASSDALGGEDAEQFFGPGTRLTVL"
result = "no recognition"

[[record]]
binder = "I4F8 (TCR, V domains shown) Valpha: AQSVTQPDARVTVSEGASLQLRCKYSYFGTPYLFWYVQYPRQGLQLLLKYYPGDPVVQGVNGFEAEFSKSNSSFHLRKASVHWSDWAVYFCAVSNMGYKLTFGTGTSLLVDP Vbeta: DPKIIQKPKYLVAVTGSEKILICEQYLGHNAMYWYRQSAKKPLEFMFSYSYQKLMDNQTASSRFQPQSSKKNHLDLQITALKPDDSATYFCASSQEMGGALEQYFGPGTRLTVL"
result = "no recognition"

